Please provide measured Tmax for the entries that follow.
ASSAY NOTES: Bioavailability: plasma concentration after oral administration to rats
Assay type: in vivo, male Sprague-Dawley rats
APPLIED CONDITIONS: male, Sprague-Dawley, plasma; rat, 50 mg/Kg po, vehicle Mix
The answer is to be given in min; state only the numeric part.

[in] // Tmax lookup, key: COC(=O)N[C@H](C(=O)NCCCC[C@@H](CO)N(CC(C)C)S(=O)(=O)c1ccc(N)cc1)C(c1ccccc1)c1ccccc1
[out] 40

[in] What about COC(=O)N[C@H](C(=O)NCCCC[C@@H](CO)N(CC(C)C)S(=O)(=O)c1ccc(N)c(F)c1)C(c1ccccc1)c1ccccc1 ?
[out] 60

----------
Could you please report measured Cmax for the items listed next?
ASSAY NOTES: Bioavailability: plasma concentration after oral administration to rats
Assay type: in vivo, male Sprague-Dawley rats
APPLIED CONDITIONS: male, Sprague-Dawley, plasma; rat, 50 mg/Kg po, vehicle Mix
Method: To assess the extent of in vivo cleavage of the phosphate group from the putative compounds, PL-100, PL-462 (based on PL-100), PL-337 and PL-515 (based on PL-337) compounds were administered po (50 mg/kg) to male Sprague-Dawley rats and their plasma concentration measured at different time intervals post-administration. All test articles (PL-100, PL-462, PL-337 and PL-515) were prepared in different vehicle at the final concentration of 25 mg/mL. […]

[in] Request the reported Cmax associated with COC(=O)N[C@H](C(=O)NCCCC[C@@H](CO)N(CC(C)C)S(=O)(=O)c1ccc(N)c(F)c1)C(c1ccccc1)c1ccccc1
[out] 681 nM

[in] Also COC(=O)N[C@H](C(=O)NCCCC[C@@H](CO)N(CC(C)C)S(=O)(=O)c1ccc(N)cc1)C(c1ccccc1)c1ccccc1 ?
[out] 498 nM

FYI, the data here is from patent EP2165709B1.
